# studyTarget: Cytochrome P450 11B1, mitochondrial (Homo sapiens, UniProt P15538)
# Sequence (P15538 whole entry): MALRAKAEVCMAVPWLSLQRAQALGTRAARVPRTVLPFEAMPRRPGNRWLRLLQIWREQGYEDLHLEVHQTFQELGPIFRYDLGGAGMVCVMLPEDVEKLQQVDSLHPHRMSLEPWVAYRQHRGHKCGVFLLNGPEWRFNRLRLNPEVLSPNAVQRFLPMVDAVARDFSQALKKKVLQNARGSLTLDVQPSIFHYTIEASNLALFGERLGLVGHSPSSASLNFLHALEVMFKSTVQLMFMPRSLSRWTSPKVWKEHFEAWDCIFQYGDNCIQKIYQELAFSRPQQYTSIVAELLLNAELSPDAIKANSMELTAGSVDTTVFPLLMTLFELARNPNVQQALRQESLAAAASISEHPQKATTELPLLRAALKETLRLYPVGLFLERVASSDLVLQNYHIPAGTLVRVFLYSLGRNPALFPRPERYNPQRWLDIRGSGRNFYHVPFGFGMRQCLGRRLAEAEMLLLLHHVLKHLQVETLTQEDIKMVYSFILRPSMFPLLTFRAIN
# protocol: Inhibition of human CYP11B1 expressed in hamster V79 MZ cells using [3H] 11 deoxycorticosterone as substrate by HPLC radioflow detector
quantityMeasured: pIC50
FYI, pIC50 means -log10 of a concentration in mol per litre.

[ask] Request the reported pIC50 associated with c1ccc(-c2ccc(Cn3ccnc3)cn2)cc1
[reply] 6.82

---

# studyTarget: Cytochrome P450 11B2, mitochondrial (Homo sapiens)
# Sequence (P19099 whole entry): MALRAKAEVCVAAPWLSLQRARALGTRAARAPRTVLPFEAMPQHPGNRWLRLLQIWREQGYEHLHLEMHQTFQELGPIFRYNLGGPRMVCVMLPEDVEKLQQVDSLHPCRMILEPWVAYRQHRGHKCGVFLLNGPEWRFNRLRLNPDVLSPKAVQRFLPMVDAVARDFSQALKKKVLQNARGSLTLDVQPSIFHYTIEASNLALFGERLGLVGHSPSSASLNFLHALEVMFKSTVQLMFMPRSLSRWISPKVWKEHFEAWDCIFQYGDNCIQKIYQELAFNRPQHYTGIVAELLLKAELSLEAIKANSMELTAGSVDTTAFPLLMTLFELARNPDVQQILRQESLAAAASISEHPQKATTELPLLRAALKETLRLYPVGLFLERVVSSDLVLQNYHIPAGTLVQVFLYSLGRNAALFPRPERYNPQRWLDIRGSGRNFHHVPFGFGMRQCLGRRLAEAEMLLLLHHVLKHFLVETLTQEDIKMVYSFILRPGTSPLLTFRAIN
# protocol: Inhibition of human CYP11B2 expressed in hamster V79 MZ cells using [3H] 11 deoxycorticosterone as substrate by HPLC radioflow detector
quantityMeasured: IC50 (nM)
Expressed in nM, but write only the number.

[ask] Return reported IC50; argument: c1ccc(-c2ccc(Cn3ccnc3)cn2)cc1
[reply] 2770

Measured values drawn from BindingDB's records for doi:10.1021/ml100283h for this set.
